Tested on: T1, hCEACAM8, human CEACAM8 ECD (35-332) (human, UniProt P31997 35-332)
T1 construct: With 24 amino acid extension containing a His-Tag
T1 sequence: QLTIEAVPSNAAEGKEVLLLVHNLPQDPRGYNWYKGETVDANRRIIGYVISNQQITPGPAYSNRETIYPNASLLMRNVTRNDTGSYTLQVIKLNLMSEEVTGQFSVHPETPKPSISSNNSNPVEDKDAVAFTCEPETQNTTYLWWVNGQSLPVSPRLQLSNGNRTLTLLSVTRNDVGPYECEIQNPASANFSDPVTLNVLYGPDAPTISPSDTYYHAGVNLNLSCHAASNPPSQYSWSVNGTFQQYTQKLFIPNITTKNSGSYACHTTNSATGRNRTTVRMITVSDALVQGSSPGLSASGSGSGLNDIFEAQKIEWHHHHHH
Assay remarks: ELISA
Property label: percentage of binding compared to full binding with human CEACAM5 (%)

Binder | Unit label | Measured
huMAb2-3 (antibody, human IgG1, kappa, V domains shown, Humanized MAb2, human IgG1 / Ckappa; also called MAb2_VL1cVH1a-IgG1) VH: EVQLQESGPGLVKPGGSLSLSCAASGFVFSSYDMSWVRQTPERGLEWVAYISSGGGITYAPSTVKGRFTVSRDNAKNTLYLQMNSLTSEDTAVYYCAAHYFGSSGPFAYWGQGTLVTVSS VL: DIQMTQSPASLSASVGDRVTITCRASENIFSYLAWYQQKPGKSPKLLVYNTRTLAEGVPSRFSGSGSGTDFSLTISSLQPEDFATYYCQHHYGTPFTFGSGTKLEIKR | % | 0.6
huMAb2-1 (antibody, V domains shown, Humanized MAb2 (VL1 + VH1) fused to human IgG1 and human Ckappa constant domains; also called MAb2_VL1VH1-IgG1; MAb2VL1VH1-IgG1) VH: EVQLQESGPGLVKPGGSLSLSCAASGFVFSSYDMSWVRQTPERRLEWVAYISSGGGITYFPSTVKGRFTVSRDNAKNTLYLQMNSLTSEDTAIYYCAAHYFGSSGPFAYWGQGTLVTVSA VL: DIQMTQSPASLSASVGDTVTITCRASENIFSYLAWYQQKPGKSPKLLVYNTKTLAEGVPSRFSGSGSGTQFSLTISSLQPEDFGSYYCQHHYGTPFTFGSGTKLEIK | % | 0.9
huMAb2-4 (antibody, human IgG1, kappa, V domains shown, Humanized MAb2, human IgG1 / Ckappa; also called MAb2_VL1d VH1-IgG1; MAb2_VL1dVH1-IgG1) VH: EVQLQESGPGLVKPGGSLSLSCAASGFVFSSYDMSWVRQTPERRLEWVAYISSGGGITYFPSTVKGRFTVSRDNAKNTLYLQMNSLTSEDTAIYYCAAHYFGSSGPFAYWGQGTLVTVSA VL: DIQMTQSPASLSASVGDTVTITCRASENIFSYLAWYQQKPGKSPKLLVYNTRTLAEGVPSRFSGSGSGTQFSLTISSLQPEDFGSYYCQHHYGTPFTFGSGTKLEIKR | % | 1.4
chMAb2 (antibody, human IgG1, kappa, V domains shown, Chimeric, human IgG1, Ck isotype; also called MAb2-IgG1; chimeric MAb2) VH: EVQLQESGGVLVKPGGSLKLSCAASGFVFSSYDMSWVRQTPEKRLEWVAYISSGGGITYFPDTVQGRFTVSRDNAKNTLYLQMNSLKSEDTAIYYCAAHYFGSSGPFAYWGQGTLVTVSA VL: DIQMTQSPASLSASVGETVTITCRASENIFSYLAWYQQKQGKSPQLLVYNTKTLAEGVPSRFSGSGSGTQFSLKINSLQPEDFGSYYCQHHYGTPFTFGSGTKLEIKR | % | 0.6
huMAb2-2 (antibody, V domains shown, Humanized MAb2 (VL1a + VH1a) fused to human IgG1 and human Ckappa constant domains; also called MAb2_VL1aVH1a-IgG1; MA2_VL1aVH1a-IgG1) VH: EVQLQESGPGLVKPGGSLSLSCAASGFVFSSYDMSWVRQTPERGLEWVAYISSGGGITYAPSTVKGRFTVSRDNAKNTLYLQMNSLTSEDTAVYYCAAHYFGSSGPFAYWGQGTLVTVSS VL: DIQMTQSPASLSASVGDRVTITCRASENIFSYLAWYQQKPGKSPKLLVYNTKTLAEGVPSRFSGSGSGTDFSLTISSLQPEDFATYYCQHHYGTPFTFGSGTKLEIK | % | 0.5
